# protocol notes: AUC (0 to 24 hrs) in po dosed rat
# Format: ADME, organism-based
# Design: time < 24 hr, route oral
# cond: in vivo
Where a SMILES comes first, the peptide text is derived from it. [ ]: non-standard residue; d: D form. MeBmt = C/C=C/C[C@@H](C)[C@@H](O)[C@H](NC)C(=O)O; NMeL = CN[C@@H](CC(C)C)C(=O)O; NMeV = CN[C@H](C(=O)O)C(C)C; Sar = CNCC(=O)O
endpoint: AUC(0-t) at 24 h (ng·h/mL)

[[record]]
molecule = "C/C=C/C[C@@H](C)[C@@H](O)[C@H]1C(=O)N[C@@H]([C@@H](C)O)C(=O)N(C)[C@H](C)C(=O)N(C)[C@@H]([C@@H](C)CC)C(=O)N[C@@H](CC(C)C)C(=O)N(C)[C@@H](CC(C)C)C(=O)N[C@@H](C)C(=O)N[C@H](C)C(=O)N(C)[C@@H](CC(C)C)C(=O)N[C@@H](CC(C)C)C(=O)N(C)[C@@H](C(C)C)C(=O)N1C"
reported_value = 13300

[[record]]
molecule = "C/C=C/C[C@@H](C)[C@@H](O)[C@H]1C(=O)N[C@@H]([C@@H](C)O)C(=O)N(C)CC(=O)N(C)[C@@H]([C@@H](C)CC)C(=O)N[C@@H](CC(C)C)C(=O)N(C)[C@@H](CC(C)C)C(=O)N[C@@H](C)C(=O)N[C@H](C)C(=O)N(C)[C@@H](CC(C)C)C(=O)N[C@@H](CC(C)C)C(=O)N(C)[C@@H](C(C)C)C(=O)N1C"
reported_value = 111

[[record]]
molecule = "C/C=C/C[C@@H](C)[C@@H](O)[C@H]1C(=O)N[C@@H]([C@@H](C)O)C(=O)N(C)CC(=O)N(C)[C@@H](CC(C)C)C(=O)N[C@@H](CC(C)C)C(=O)N(C)[C@@H](CC(C)C)C(=O)N[C@@H](C)C(=O)N[C@H](C)C(=O)N(C)[C@@H](CC(C)C)C(=O)N[C@@H](CC(C)C)C(=O)N(C)[C@@H](C(C)C)C(=O)N1C (cyclo(A[dA][NMeL]L[NMeV][MeBmt]T[Sar][NMeL]L[NMeL]))"
reported_value = 140

[[record]]
molecule = "C/C=C/C[C@@H](C)[C@@H](O)[C@H]1C(=O)N[C@@H]([C@@H](C)O)C(=O)N(C)[C@H](C)C(=O)N(C)[C@@H]([C@@H](C)OO)C(=O)N[C@@H](CC(C)C)C(=O)N(C)[C@@H](CC(C)C)C(=O)N[C@@H](C)C(=O)N[C@H](C)C(=O)N(C)[C@@H](CC(C)C)C(=O)N[C@@H](CC(C)C)C(=O)N(C)[C@@H](C(C)C)C(=O)N1C"
reported_value = 5680


====

# protocol notes: Aqueous solubility of the compound at pH 6.8
# Assay type: physicochemical
endpoint: solubility

[[record]]
smiles_representation = "C/C=C/C[C@@H](C)[C@@H](O)[C@H]1C(=O)N[C@@H]([C@@H](C)O)C(=O)N(C)[C@H](C)C(=O)N(C)[C@@H]([C@@H](C)OC(C)(C)C)C(=O)N[C@@H](CC(C)C)C(=O)N(C)[C@@H](CC(C)C)C(=O)N[C@@H](C)C(=O)N[C@H](C)C(=O)N(C)[C@@H](CC(C)C)C(=O)N[C@@H](CC(C)C)C(=O)N(C)[C@@H](C(C)C)C(=O)N1C"
reported_value = "< 0.1 µg/mL"

[[record]]
smiles_representation = "C/C=C/C[C@@H](C)[C@@H](O)[C@H]1C(=O)N[C@@H]([C@@H](C)O)C(=O)N(C)[C@H](C)C(=O)N(C)[C@@H]([C@@H](C)OO)C(=O)N[C@@H](CC(C)C)C(=O)N(C)[C@@H](CC(C)C)C(=O)N[C@@H](C)C(=O)N[C@H](C)C(=O)N(C)[C@@H](CC(C)C)C(=O)N[C@@H](CC(C)C)C(=O)N(C)[C@@H](C(C)C)C(=O)N1C"
reported_value = "> 122 µg/mL"

[[record]]
smiles_representation = "C/C=C/C[C@@H](C)[C@@H](O)[C@H]1C(=O)N[C@@H]([C@@H](C)O)C(=O)N(C)[C@H](C)C(=O)N(C)[C@@H]([C@@H](C)CC)C(=O)N[C@@H](CC(C)C)C(=O)N(C)[C@@H](CC(C)C)C(=O)N[C@@H](C)C(=O)N[C@H](C)C(=O)N(C)[C@@H](CC(C)C)C(=O)N[C@@H](CC(C)C)C(=O)N(C)[C@@H](C(C)C)C(=O)N1C"
reported_value = "< 0.1 µg/mL"

